Sourced from the supplement of paper PMC4466140

Target: ScHse1
Assay: SPOT peptide array binding signal intensity (averaged, normalized) (arbitrary units (background-subtracted, floor 0; scale differs between SH3 domains)); higher = stronger binding of the SH3 domain to the peptide
Criterion: SPOT peptide array binding signal intensity meeting or surpassing 90. Met: T. Not met: F.

Confirm if SPOT peptide array binding signal intensity reported for the binder HVRRSILALPLGVLL is 90 or above.
T

Confirm if SPOT peptide array binding signal intensity reported for the binder AVPPPPPPPPLPESL is 90 or above.
F

Confirm if SPOT peptide array binding signal intensity reported for the binder NSVPIMPTLPPRPYI is 90 or above.
F

Confirm if SPOT peptide array binding signal intensity reported for the binder KTRLRPAFIQQLWSS is 90 or above.
T

New cases:
Confirm if SPOT peptide array binding signal intensity reported for the binder STKKPRPPVKSKPKH is 90 or above.
T

Confirm if SPOT peptide array binding signal intensity reported for the binder SRSKPLPLTPNSKYN is 90 or above.
F
